# assay_target: sarkosyl insoluble (SI) α-synuclein (human α-SYN A53T) (Homo sapiens, UniProt P37840, A53T)
# Construct: expressed in transfected cells
# assay_text: MJFF-14-6-4-2 conformation specific ELISA of sarkosyl insoluble α-synuclein after compound treatment
# Assay type: cell-based
# conditions: 1 μM compound; protein remaining relative to DMSO control; PFF induced A53T α-synuclein overexpressing HEK293 cells; read-out: Protein Degradation at 1 μM
measured_endpoint: remaining activity at 1 µM

The examples below pair each entry with its known result.
CNc1ccc(-c2nc3ccc(OCCOCCOCCOCCOCC(=O)N[C@H](C(=O)N4C[C@H](O)C[C@H]4C(=O)N[C@@H](C)c4ccc(-c5scnc5C)cc4)C(C)(C)C)cc3s2)cc1; 35 to 70%
CNc1ccc(-c2nc3ccc(OCCOCCOCCOCCOCCOCCOCC(=O)N[C@H](C(=O)N4C[C@H](O)C[C@H]4C(=O)N[C@@H](C)c4ccc(-c5scnc5C)cc4)C(C)(C)C)cc3s2)cc1; < 35%
CN(C)c1ccc(-c2nc3ccc(O[C@H]4C[C@H](OC5CCN(CCCCCOc6ccc7c(c6)C(=O)N(C6CCC(=O)NC6=O)C7=O)CC5)C4)cc3s2)cc1 (some centres unmarked); > 120%
COc1cc(/C=C/c2ccc3cc(OCCOCCOCCOCCOc4ccc5c(c4)C(=O)N(C4CCC(=O)NC4=O)C5=O)ccc3n2)ccn1 (centres unmarked); > 120%

Below: the item to evaluate.
For the compound CN(CCCN1c2ccccc2Sc2ccccc21)CCOCCOCCOc1ccc2c(c1)C(=O)N(C1CCC(=O)NC1=O)C2=O (centres unmarked) , give its measured remaining activity at 1 µM value. 35 to 70%

* * *

# assay_target: sarkosyl insoluble (SI) α-synuclein (human α-SYN A53T) (Homo sapiens, UniProt P37840, A53T)
# Construct: expressed in transfected cells
# assay_text: MJFF-14-6-4-2 conformation specific ELISA of sarkosyl insoluble α-synuclein after compound treatment
# Format: cell-based
# conditions: 1 μM compound; protein remaining relative to DMSO control; PFF induced A53T α-synuclein overexpressing HEK293 cells; read-out: Protein Degradation at 1 μM
measured_endpoint: remaining activity at 1 µM

The examples below pair each entry with its known result.
CN(C)c1ccc(-c2nc3ccc(O[C@H]4C[C@H](OCCCN5CCN(c6ccc7c(c6)C(=O)N(C6CCC(=O)NC6=O)C7=O)CC5)C4)cc3s2)cc1 (some centres unmarked) [Exemplary Compound 24]; > 120%
CN(CCCN1c2ccccc2Sc2ccccc21)CCOCCOCCOCCOc1ccc2c(c1)C(=O)N(C1CCC(=O)NC1=O)C2=O (centres unmarked) [Exemplary Compound 16]; 70 to 120%
Cc1ncsc1-c1ccc([C@H](C)NC(=O)[C@@H]2C[C@@H](O)CN2C(=O)[C@@H](NC(=O)COCCOCCOCCOCCOCCOCCOc2ccc3c(c2)Sc2cc([N+](=O)[O-])ccc2N3)C(C)(C)C)cc1 [Exemplary Compound 12]; > 120%
O=C1CCC(N2C(=O)c3ccc(OCCOCCOCCOCCOCCOc4ccc5c(c4)Sc4cc([N+](=O)[O-])ccc4N5)cc3C2=O)C(=O)N1 (centres unmarked) [Exemplary Compound 14]; 35 to 70%

For the compound O=C1CCC(N2C(=O)c3ccc(OCCCCCN4CCC(O[C@H]5C[C@H](Oc6ccc(CN7C(=O)C(=CC=Cc8ccc([N+](=O)[O-])cc8)c8ccccc87)cc6)C5)CC4)cc3C2=O)C(=O)N1 (some centres unmarked) [Exemplary Compound 31] , give its measured remaining activity at 1 µM value. 70 to 120%
